Each entry below lists one item and its recorded IC50 value.
# targetOfAssay: HDAC2 (Homo sapiens (Human))
# Sequence (Q92769 whole entry): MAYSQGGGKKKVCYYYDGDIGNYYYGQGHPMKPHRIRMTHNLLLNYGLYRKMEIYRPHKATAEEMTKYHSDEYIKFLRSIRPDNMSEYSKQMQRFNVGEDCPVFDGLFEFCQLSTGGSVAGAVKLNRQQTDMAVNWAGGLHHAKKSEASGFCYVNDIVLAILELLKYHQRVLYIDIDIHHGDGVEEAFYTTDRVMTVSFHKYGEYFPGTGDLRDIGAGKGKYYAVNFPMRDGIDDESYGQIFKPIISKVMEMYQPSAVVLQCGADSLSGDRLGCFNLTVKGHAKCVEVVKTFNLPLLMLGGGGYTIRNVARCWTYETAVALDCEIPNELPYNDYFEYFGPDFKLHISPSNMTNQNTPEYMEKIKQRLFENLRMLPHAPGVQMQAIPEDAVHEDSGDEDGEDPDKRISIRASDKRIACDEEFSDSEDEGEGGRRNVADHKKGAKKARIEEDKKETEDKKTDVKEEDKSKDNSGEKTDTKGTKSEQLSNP
# experimentalDetails: HDAC2 enzymatic inhibition assay in SH-SY5Y cell lysate (HDAC-Glo 2)
# Assay type: cell-based
# measurementSetup: SH-SY5Y cells, five hours incubation

The examples below pair each entry with its known result.
COCc1ccc2c(n1)CN(C(=O)Nc1nc(-c3ccc(F)cc3F)ccc1N)C2 [Compound 2]; 1 to 1.5 µM
CCc1ncc2c(n1)CN(C(=O)Nc1nc(-c3ccc(F)cc3F)ccc1N)C2 [Compound 7]; 0.1 to 1 µM
COCc1cc2c(cn1)CN(C(=O)Nc1nc(-c3ccccc3F)ccc1N)C2 [Compound 9]; 0.1 to 1 µM

Now turn to the next molecule.
For the molecule Nc1ccc(-c2ccc(F)cc2F)nc1NC(=O)N1Cc2cnc(CN3CC(F)C3)cc2C1 [Compound 4] , give its measured IC50 value. 1 to 1.5 µM

====

# Test system: human erythroid (CFU-E, BFU-E) progenitors
# experimentalDetails: Erythroid CFU assay (human bone marrow clonogenic progenitors)
# Format: cell-based
# measurementSetup: 10 uM, 14 days in culture
endpointLabel: Erythroid % control remaining @ 10 uM dose (%)

Cc1nc2c(s1)CN(C(=O)Nc1nc(-c3ccc(F)cc3)ccc1N)C2 [Comparator 2, reference compound]; 45
COCCn1cc2c(n1)CN(C(=O)Nc1nc(-c3ccc(F)cc3)ccc1N)C2 [Comparator 4, reference compound]; 28
Cc1ncc2c(n1)CN(C(=O)Nc1nc(-c3ccc(F)cc3F)ccc1N)C2; 69

(1) CCn1cc2c(n1)CN(C(=O)Nc1nc(-c3ccc(F)cc3)ccc1N)C2 [Comparator 1, reference compound]
(2) COCc1ccc2c(n1)CN(C(=O)Nc1nc(-c3ccc(F)cc3F)ccc1N)C2
Between 1 and 2 , whose recorded Erythroid % control remaining @ 10 uM dose is greater? Selection: enter the item's label. 2
(2: 62%, 1: 22%)
